procedure summary: Acute toxicity, DL50 (mice), ip
assay setup: mice, Table 2

entry smiles	Acute toxicity DL50 (mice)
Cl.O=c1oc(CCCN2CCN(c3ccccc3)CC2)c(-c2ccc(F)cc2)o1	> 500 mg/kg
Cl.O=c1oc(CCN2CCN(c3ccc(Cl)c(Cl)c3)CC2)c(-c2ccc(F)cc2)o1	600 mg/kg
Cl.O=c1oc(CCN2CCN(c3cc(Cl)cc(Cl)c3)CC2)c(-c2ccc(F)cc2)o1	> 1000 mg/kg
Cc1ccc(-c2oc(=O)oc2CCN2CCN(c3ccccc3)CC2)cc1.Cl	> 1000 mg/kg
Cl.O=c1oc(CCN2CCN(c3cc(Cl)ccc3Cl)CC2)c(-c2ccc(F)cc2)o1	1000 mg/kg

The measurements presented in this section are drawn from patent US4235904A.
